These entries and their values trace back to patent US9170257B2.

Test: in vivo
Design: species or system Beagle dogs
Conditions: both sexes, beagle, dog, in vivo, Kp [tissue]/[plasma], Striatum
PROPERTY: Kp at 2 h
One number for each entry.

Quick one: Kp at 2 h of COc1cc(/C=C/C(=O)CC(=O)/C=C/c2ccc(O)c(OC)c2)ccc1O [Curcumin, reference compound] ?
0.0087

###

Test: Tissue distribution of curcumin and THC at necropsy 15 minutes post-infusion
Parameters: species or system Beagle dogs
Conditions: both sexes, Beagle, dog, in vivo, 10 mg/kg, 2 hour infusion; No H3PO4; read-out: Tissue level, Brain Stem
PROPERTY: concentration at 15 min (ng/g)
Answers are plain numbers, in ng/g.

Quick one: concentration at 15 min of COc1cc(CCC(=O)CC(=O)CCc2ccc(O)c(OC)c2)ccc1O [THC, tetrahydrocurcumin] ?
2.34
